# systemTested: human α7 nAChR stably expressed in a HEK cell line (with human RIC-3) (Homo sapiens, UniProt P36544)
# Construct: PrecisION hnAChR α7/RIC-3
# Sequence (P36544 23-502): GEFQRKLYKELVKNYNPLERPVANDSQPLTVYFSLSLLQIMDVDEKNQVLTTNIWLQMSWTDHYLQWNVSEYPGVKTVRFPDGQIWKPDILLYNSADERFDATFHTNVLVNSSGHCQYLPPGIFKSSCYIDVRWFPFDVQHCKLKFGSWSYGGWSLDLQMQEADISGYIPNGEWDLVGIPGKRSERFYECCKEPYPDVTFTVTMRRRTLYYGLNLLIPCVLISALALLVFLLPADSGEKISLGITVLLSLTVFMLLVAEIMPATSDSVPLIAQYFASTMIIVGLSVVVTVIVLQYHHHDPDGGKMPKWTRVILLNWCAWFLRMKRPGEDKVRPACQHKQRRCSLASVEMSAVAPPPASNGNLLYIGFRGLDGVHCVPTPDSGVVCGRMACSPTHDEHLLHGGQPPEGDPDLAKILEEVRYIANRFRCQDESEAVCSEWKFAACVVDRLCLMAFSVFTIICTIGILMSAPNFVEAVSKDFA
# testDetails: Automated patch-clamp electrophysiology functional assay (Assay A), IonFlux HT, whole-cell population patch
# Assay type: cell-based
# testContext: electrophysiology EC50, HEK cells expressing human α7/RIC-3, 40 μM acetylcholine, holding potential −60 mV, room temperature; read-out: α7 nAChR EC50
readoutKind: EC50 (nM)

// worked examples, EC50 included
- compound: "CC1(C)[C@@H](c2ccc(S(N)(=O)=O)cc2)[C@@H]1c1nnc(C2CCCCC2)s1"
  readoutKind: "EC50"
  unitText: "nM"
  experimentalResult: 2200
- compound: "CC1(C)[C@@H](c2ccc(S(N)(=O)=O)cc2)[C@@H]1c1noc(C2(c3cc(F)ccc3F)CCC2)n1"
  readoutKind: "EC50"
  unitText: "nM"
  experimentalResult: 170
- compound: "CC1(C)[C@@H](c2ccc(S(N)(=O)=O)cc2)[C@@H]1c1nnc(CC2CC2)o1"
  readoutKind: "EC50"
  unitText: "nM"
  experimentalResult: 4500

A = CC(C)(C)c1coc([C@@H]2[C@@H](c3ccc(S(N)(=O)=O)cc3)C2(C)C)n1
B = CC1(C)C(c2ccc(S(N)(=O)=O)cc2)C1c1cc(C2CCCC2)on1 (stereo not shown)
(Q) Decide: A or B , by lowest recorded EC50. API: response body contains the label of the selected item.
(A) B

1 = CC1(C)[C@@H](c2ccc(S(N)(=O)=O)cc2)[C@@H]1c1nnc(-c2ccc(F)cc2F)o1
2 = CC1(C)[C@@H](c2ccc(S(N)(=O)=O)cc2)[C@@H]1c1nc(-c2ccc(F)cc2F)co1
3 = NS(=O)(=O)c1ccc([C@@H]2C[C@H]2c2cn(-c3cccc(F)c3)nn2)cc1
4 = NS(=O)(=O)c1ccc([C@@H]2C[C@H]2c2noc(N3CCCCC3)n2)cc1
5 = NS(=O)(=O)c1ccc([C@@H]2[C@@H](c3ncc(C4CCCC4)o3)C2(F)F)cc1
(Q) List the 5 entries from lowest EC50 to highest EC50 value. Please express your ranking as an ordered list of the labels.
(A) 4, 2, 5, 1, 3

A = NS(=O)(=O)c1ccc([C@@H]2C[C@H]2c2csc(-c3ccccc3)n2)cc1
B = NS(=O)(=O)c1ccc([C@@H]2C[C@H]2c2noc(-c3cncc(F)c3)n2)cc1
C = NS(=O)(=O)c1ccc([C@@H]2C[C@H]2c2ccn(Cc3cccc(F)c3)n2)cc1
(Q) # rank by EC50, ascending (min first) Provide your answer as the labels ordered per the instruction.
(A) C, A, B

----------
# systemTested: human α7 nAChR stably expressed in a HEK cell line (with human RIC-3) (Homo sapiens, UniProt P36544)
# Construct: PrecisION hnAChR α7/RIC-3
# testDetails: Automated patch-clamp electrophysiology functional assay (Assay A), IonFlux HT, whole-cell population patch
# Assay type: cell-based
# testContext: electrophysiology EC50, HEK cells expressing human α7/RIC-3, 40 μM acetylcholine, holding potential −60 mV, room temperature; read-out: α7 nAChR EC50
pEC50: −log10 of the molar value.
readoutKind: pEC50

1 = CC1(C)[C@H](c2ccc(S(N)(=O)=O)cc2)[C@H]1c1cnc(-c2ccccc2)o1
2 = CC(C)c1noc([C@H]2[C@H](c3ccc(S(N)(=O)=O)cc3)C2(C)C)n1
3 = CC1(C)[C@@H](c2ccc(S(N)(=O)=O)cc2)[C@@H]1c1noc(-c2ccccc2)n1
4 = CC1(C)[C@@H](c2ccc(S(N)(=O)=O)cc2)[C@@H]1c1noc(-c2cc(C(F)(F)F)c3ccccc3n2)n1
(Q) Order these by pEC50, descending, and give the full ranking. I'd appreciate it if you listed the labels in the requested order.
(A) 3, 2, 1, 4
(3: 6.59, 2: 6.38, 1: 5.92, 4: 5.51)

P = Cc1ncccc1-c1noc([C@@H]2C[C@H]2c2ccc(S(N)(=O)=O)cc2)n1
Q = NS(=O)(=O)c1ccc([C@@H]2C[C@H]2c2cnc(-c3ccccc3)s2)cc1
R = CC1(C)[C@H](c2ccc(S(N)(=O)=O)cc2)[C@H]1c1nc(C2(c3ccccc3)CC2)no1
S = CC1(C)[C@@H](c2ccc(S(N)(=O)=O)cc2)[C@@H]1c1nc(CC2CC2)no1
T = CC1(C)[C@@H](c2ccc(S(N)(=O)=O)cc2)[C@@H]1c1nc(-c2ccccc2)no1
(Q) Rank the items in ascending order with respect to pEC50. Order the labels as requested and list them.
(A) R, P, Q, T, S
(R: 5.39, P: 5.89, Q: 6.21, T: 6.43, S: 6.70)

I = NS(=O)(=O)c1ccc([C@@H]2C[C@H]2c2nc(-c3ccc(F)cc3C(F)(F)F)no2)cc1
II = CC1(C)[C@@H](c2ccc(S(N)(=O)=O)cc2)[C@@H]1c1nnc(-c2ccccc2)o1
(Q) Pick one: I or II . Which one has the lower reported pEC50? State the label of the item chosen.
(A) II
(II: 5.74, I: 6.02)

1 = NS(=O)(=O)c1ccc([C@@H]2C[C@H]2c2nc(C3CCCCC3)no2)cc1
2 = CC1(C)[C@@H](c2ccc(S(N)(=O)=O)cc2)[C@@H]1c1nnc(-c2cccc(F)c2)o1
3 = CC(C)(C)c1noc([C@H]2[C@H](c3ccc(S(N)(=O)=O)cc3)C2(C)C)n1
(Q) Put these in order: smallest pEC50 first, largest last. List the labels, following the order given in the request.
(A) 2, 3, 1
(2: 6.13, 3: 6.39, 1: 6.72)

----------
compounds and their reported EC50
# systemTested: human α7 nAChR stably expressed in a HEK cell line (with human RIC-3) (Homo sapiens, UniProt P36544)
# Construct: PrecisION hnAChR α7/RIC-3
# testDetails: Automated patch-clamp electrophysiology functional assay (Assay A), IonFlux HT, whole-cell population patch
# Type: cell-based
# testContext: automated patch-clamp electrophysiology functional assay (Assay A); potency class by EC50; read-out: α7 nAChR Potency

Sample answers from the record:
- compound: "NS(=O)(=O)c1ccc([C@@H]2C[C@H]2c2noc(C3CCCCC3)n2)cc1"
  EC50: "100 to 500 nM"
- compound: "NS(=O)(=O)c1ccc([C@@H]2C[C@H]2c2nc(-c3ccccc3)cs2)cc1"
  EC50: "500 to 5000 nM"
- compound: "CC1(C)[C@@H](c2ccc(S(C)(=O)=O)cc2)[C@@H]1c1nc(-c2ccccc2)no1 (relative stereo)"
  EC50: "500 to 5000 nM"

(Q) Fill in: EC50 of `NS(=O)(=O)c1ccc([C@@H]2C[C@H]2c2nsc(C3CCCCC3)n2)cc1` is ___
(A) 100 to 500 nM

----------
# systemTested: human α7 nAChR stably expressed in a HEK cell line (with human RIC-3) (Homo sapiens, UniProt P36544)
# Construct: PrecisION hnAChR α7/RIC-3
# testDetails: Automated patch-clamp electrophysiology functional assay (Assay A), IonFlux HT, whole-cell population patch
# Format: cell-based
# testContext: automated patch-clamp electrophysiology functional assay (Assay A); potency class by EC50; read-out: α7 nAChR Potency
Examples of compounds with documented EC50 follow.

- smilesEntry: "NS(=O)(=O)c1ccc([C@@H]2[C@@H](c3nc(C4CCC4)no3)C2(F)F)cc1"
  EC50: "0.5 to 5 µM"
- smilesEntry: "CCOc1nc([C@@H]2[C@@H](c3ccc(S(N)(=O)=O)cc3)C2(C)C)ns1"
  EC50: "0.5 to 5 µM"
- smilesEntry: "CC1(C)[C@H](c2ccc(S(N)(=O)=O)cc2)[C@H]1c1nc(-c2ccccc2F)co1"
  EC50: "0.5 to 5 µM"
- smilesEntry: "CC1(C)[C@H](c2ccc(S(N)(=O)=O)cc2)[C@H]1c1cnn(-c2cccc(F)c2)c1"
  EC50: "0.1 to 0.5 µM"
- smilesEntry: "Cc1cccc(F)c1-c1nc([C@H]2[C@H](c3ccc(S(N)(=O)=O)cc3)C2(C)C)no1"
  EC50: "0.1 to 0.5 µM"
- smilesEntry: "CC1(C)[C@@H](c2ccc(S(N)(=O)=O)cc2)[C@@H]1c1nnc(C2CCCC2)s1"
  EC50: "0.5 to 5 µM"
- smilesEntry: "CC1(C)[C@H](c2ccc(S(N)(=O)=O)cc2)[C@H]1c1nc(-c2cncc(F)c2)no1"
  EC50: "0.5 to 5 µM"

(Q) Param item = `CC1(C)[C@@H](c2ccc(S(N)(=O)=O)cc2)[C@@H]1c1nc(C2(C(F)(F)F)CC2)no1` ; retrieve measured EC50.
(A) 0.1 to 0.5 µM

----------
# systemTested: human α7 nAChR stably expressed in a HEK cell line (with human RIC-3) (Homo sapiens, UniProt P36544)
# Construct: PrecisION hnAChR α7/RIC-3
# testDetails: Automated patch-clamp electrophysiology functional assay (Assay A), IonFlux HT, whole-cell population patch
# Format: cell-based
# testContext: automated patch-clamp electrophysiology functional assay (Assay A); potency class by EC50; read-out: α7 nAChR Potency
pEC50: −log10 of the molar value.
readoutKind: pEC50

- molecule: "NS(=O)(=O)c1ccc([C@H]2C[C@@H]2c2cnc(-c3ccccc3)o2)cc1"
  pEC50: "5.30 to 6.30"
- molecule: "NS(=O)(=O)c1ccc([C@@H]2C[C@H]2c2nc(Cc3ccc(F)cc3F)no2)cc1"
  pEC50: "5.30 to 6.30"
- molecule: "CC1(C)[C@@H](c2ccc(S(N)(=O)=O)cc2)[C@@H]1c1noc(CCC2CC2)n1 [Example I33]"
  pEC50: "5.30 to 6.30"

(Q) Look at this molecule and give its reported pEC50. `CC1(C)[C@@H](c2ccc(S(N)(=O)=O)cc2)[C@@H]1c1ncc(C2CCCC2)o1`
(A) 5.30 to 6.30

(Q) Same again, this time with NS(=O)(=O)c1ccc([C@@H]2[C@@H](c3nc(-c4cccc(F)c4)no3)C2(Cl)Cl)cc1 (relative stereo)
(A) 6.30 to 7.00

(Q) // repeat for `NS(=O)(=O)c1ccc([C@@H]2C[C@H]2c2nc(C3CC(F)(F)C3)no2)cc1` and report
(A) 5.30 to 6.30

(Q) Similarly, `CC1(C)[C@@H](c2ccc(S(N)(=O)=O)cc2)[C@@H]1c1noc(C2CCCC2)n1` ?
(A) ≥ 7.00

(Q) Request: `CC1(C)[C@@H](c2ccc(S(N)(=O)=O)cc2)[C@@H]1c1nc(-c2cccnc2C(F)(F)F)no1`
(A) 5.30 to 6.30
